Tested on: Sam68 (KHDRBS1)
test.summary: compounds binding KHDRBS1 protein – biochemical, small-molecule microarray, 635 nm fluorescence, primary screen (AID 1125);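 also: score merges 667 nm channel intensity with signal to noise over triplicate slides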
stated.conditions: higher = more signal
Recorded composite z-score, one value per entry.
measurement.name: composite z-score

>  <compound>
CC1CC/C=C\[C@H]2OC34C=CCN(Cc5ccccc5)C(=O)[C@H]3N(C(CO)C(C)C)C(=O)[C@@H]4C2C(=O)O1 (stereo partly specified)

>  <observed.value>
-0.271

$$$$
>  <compound>
CC1=C2[C@@H](CCc3ccccc3)OB(O)C[C@@H]2[C@@H]2C(=O)N(C)C(=O)[C@@H]2C1

>  <observed.value>
0.453

$$$$
>  <compound>
CC[C@@H]1C=C(C(=O)O)[C@H](c2ccccc2)N1S(=O)(=O)c1ccc(C)cc1

>  <observed.value>
0.95

$$$$
>  <compound>
NCCCCCNC(=O)[C@H]1C[C@H]2C(=O)N3CCC[C@H]3C(=O)N2[C@H]1c1cccc(OCCO)c1

>  <observed.value>
0.967

$$$$
>  <compound>
CCCC[C@@H](O)C1=C(COc2ccccc2)C[C@H]2C(=O)N(Cc3ccccc3)C(=O)[C@H]2[C@H]1CO

>  <observed.value>
0.426

$$$$
>  <compound>
C=C[C@@H](CO)N(Cc1ccc(OC)cc1)S(=O)(=O)c1ccc(Br)cc1

>  <observed.value>
0.388

$$$$
>  <compound>
CC1CC/C=C\[C@H]2OC34C=CCN(c5ccc6ccccc6c5)C(=O)[C@H]3N(CCCO)C(=O)[C@@H]4C2C(=O)O1 (stereo partly specified)

>  <observed.value>
-0.335

$$$$
>  <compound>
C#CCN(Cc1ccccc1Br)[C@H](/C=C/c1ccccc1)[C@@H](O)Cc1ccccc1

>  <observed.value>
0.446

$$$$
>  <compound>
O=C(C1N=C(c2ccc(OCCCO)cc2)N(c2ccccc2)O1)N1CCCCC1 (stereo unspecified)

>  <observed.value>
1.29

$$$$
>  <compound>
CC(C)[Si]1(C(C)C)OCc2cc(C3CC3)nc(-c3ccc(Oc4ccccc4)cc3)c21

>  <observed.value>
-0.459

$$$$
>  <compound>
COc1cccc(C)c1NC(=O)O[C@H]1[C@H](OC(=O)Nc2ccccc2-c2ccccc2)[C@H](OC(=O)Nc2ccccc2-c2ccccc2)[C@@H](OC)O[C@@H]1CO

>  <observed.value>
1.29

$$$$
>  <compound>
Cc1ccc(S[C@]2(C(=O)O)CC(=O)N(C3CCCCC3)[C@@H]2c2ccc(CO)cc2I)cc1

>  <observed.value>
1.29

$$$$
>  <compound>
C=C(C(=O)CC[C@H](OC(=O)c1ccccc1-c1ccccc1C(=O)O)c1cccc(OCCO)c1)C(C)C

>  <observed.value>
-0.192

$$$$
>  <compound>
CC(C)N1C(=O)C[C@@](C(=O)NC2CC2)(c2ccc([N+](=O)[O-])cc2)[C@H]1c1ccc(CO)cc1

>  <observed.value>
-0.203

$$$$
>  <compound>
COC(=O)[C@@]1(Cc2ccc(OC)cc2)[C@H]2c3cc(C(=O)N(C)C)n(Cc4ccc(C)o4)c3C[C@H]2CN1C(=O)c1ccccc1

>  <observed.value>
0.933

$$$$
>  <compound>
CC(C)[Si]1(C(C)C)OCc2cc(-c3ccc(-c4ccc(Cl)c(Cl)c4)o3)nc(-c3ccccc3)c21

>  <observed.value>
-1.53

$$$$

---

test.summary: growth of efflux-deficient E. coli DRC39 – strain DRC39, OD650, 24 h, E. coli filamentation inducers, primary screen (AID 1178);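 also: growth measured as culture turbidity by optical density at 650 nm; test concentration not given here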
stated.conditions: E. coli DRC39 acrAB, higher = more signal, called active from +8 up or from −8 down
Activity calls are given as the source filed them.
Recorded z-score, one value per entry.

>  <compound>
COC(=O)[C@@]1(Cc2ccc(F)cc2)[C@H]2c3cc(C(=O)N(C)C)n(Cc4ccc(OC(F)(F)F)cc4)c3C[C@H]2CN1C(=O)c1ccccc1

>  <z-score>
-0.586 (inactive)

$$$$
>  <compound>
CCCCC(CC)C(O)C1C=CC2C(=O)N(c3ccccc3)C(=O)C2N1Nc1ccc(C#N)cc1 (stereo not drawn)

>  <z-score>
0.248 (inactive)

$$$$
>  <compound>
CCCCCN1CC=CC23O[C@@H]4C=CCCOC(=O)C4[C@H]2C(=O)N(CCCCCCO)[C@@H]3C1=O (stereo partly drawn)

>  <z-score>
0.649 (inactive)

$$$$

---

Recorded z-score, one value per entry.
test.summary: S6 kinase pathway phospho-S6 level changes – cell-based, A549, cytoblot, luminescence, serum-stimulated, primary screen (AID 1158);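 also: serum-stimulated A549 lung adenocarcinoma cells; signal is phosphorylated S6 detected by cytoblot immunostaining with HRP secondary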
stated.conditions: 5 h, higher = more signal

>  <compound>
C=CCC(OC(C)=O)[C@@H]1[C@@H](N(Cc2ccc(-c3ccccc3)cc2)C(=O)c2ccc(-c3ccccc3)cc2)c2cc(OCCCO)ccc2N1C(=O)c1ccc2ccccc2c1 (stereo partly drawn)

>  <z-score>
0.6

$$$$
>  <compound>
O=C(c1ccccc1)N1C(=O)[C@]2(Cc3ccccc31)N=C(c1ccc(OCCCO)cc1)O[C@@H]2c1ccccc1

>  <z-score>
-0.203

$$$$
>  <compound>
CO[C@H]1O[C@H](CO)[C@@H](OC(=O)Nc2ccccc2)[C@H](OC(=O)c2cc3ccccc3[nH]2)[C@H]1OC(=O)c1cc2ccccc2[nH]1

>  <z-score>
1.27

$$$$
>  <compound>
C=CCN1C(=O)[C@]2(CCC(=O)OC(C)(C)C)N=C(c3ccc(OCCCO)cc3)O[C@@H]2c2ccccc21

>  <z-score>
0.708

$$$$
>  <compound>
COC(=O)[C@@]1(Cc2ccc(OC)cc2)[C@H]2c3cc(C(=O)N(C)C)n(Cc4ccc(OC(F)(F)F)cc4)c3C[C@H]2CN1C(=O)c1ccccc1

>  <z-score>
-1.19

$$$$
>  <compound>
Cc1ccc(S[C@]2(C(=O)NCC(F)(F)F)CC(=O)N(Cc3cc(C(F)(F)F)cc(C(F)(F)F)c3)[C@@H]2c2ccc(CO)cc2I)cc1

>  <z-score>
0.837

$$$$
>  <compound>
CC(C)N1CC=CC23O[C@@H]4C=CCCOC(=O)C4[C@H]2C(=O)N(CCCO)[C@@H]3C1=O (stereo partly drawn)

>  <z-score>
0.842

$$$$
>  <compound>
COC(=O)[C@@]1(Cc2ccccc2)[C@H]2c3cc(C(=O)N(C)C)n(Cc4ccc(C)o4)c3C[C@H]2CN1C(=O)c1ccccc1

>  <z-score>
1.97

$$$$
>  <compound>
CC(C)[Si]1(C(C)C)OCc2cc(-c3ccc(-c4ccc(Cl)c(Cl)c4)o3)nc(-c3ccccc3)c21

>  <z-score>
-0.106

$$$$
>  <compound>
C=CCC(OC(C)=O)[C@@H]1[C@@H](N(Cc2ccc(-c3cccc(C(F)(F)F)c3)o2)C(=O)Cc2ccc(OC)cc2)c2cc(OCCCO)ccc2N1C(=O)c1ccc(-c2ccccc2)cc1 (stereo partly drawn)

>  <z-score>
-0.199

$$$$
>  <compound>
CC1CC/C=C\[C@H]2OC34C=CCN(c5ccc(Cl)cc5)C(=O)[C@H]3N(C(C)CO)C(=O)[C@]4(C)C2C(=O)O1 (stereo partly drawn)

>  <z-score>
0.116

$$$$
>  <compound>
COCC(=C=CC[C@H](O)c1ccccc1OCCO)C[C@H](O)c1ccccn1

>  <z-score>
0.658

$$$$
>  <compound>
CC(C)N1C(=O)C[C@@](C(=O)NC2CC2)(c2ccc([N+](=O)[O-])cc2)[C@H]1c1ccc(CO)cc1

>  <z-score>
2.28

$$$$
>  <compound>
[N-]=[N+]=Nc1ccccc1C[C@@]1(C(N)=O)N=C(c2ccc(OCCCO)cc2)O[C@@H]1c1ccccc1N=[N+]=[N-]

>  <z-score>
2.05

$$$$
>  <compound>
COc1cc2c(cc1O)C(C1CC1)N(Cc1cccc(OC(F)(F)F)c1)CC2 (stereo not drawn)

>  <z-score>
-0.759

$$$$
>  <compound>
CC#CCO[Si](C#Cc1ccccc1)(C(C)C)C(C)C

>  <z-score>
-1.16

$$$$
>  <compound>
CCCNC(=O)[C@@H]1c2ccccc2C(=O)N(Cc2ccc(OC(F)(F)F)cc2)[C@H]1c1ccc(CO)cc1

>  <z-score>
0.289

$$$$
>  <compound>
Cc1ccc(F)cc1S(=O)(=O)N[C@@H]1CCN(Cc2ccc(Br)cc2)C1

>  <z-score>
-0.166

$$$$
>  <compound>
C=CCNC(=O)[C@@H]1[C@H]2C(=O)O[C@H](c3ccccc3)[C@H](c3ccccc3)N2[C@H](c2ccc(O)cc2)[C@@]12C(=O)N(C(=O)OCCOC)c1ccc(C#CC3=CCCCC3)cc12

>  <z-score>
0.0229

$$$$
>  <compound>
CCOC(=O)C1=CC[C@@H](c2ccccc2)N(S(=O)(=O)c2ccc(C)cc2)[C@H]1c1ccccc1

>  <z-score>
-0.685

$$$$
>  <compound>
COCCOC(=O)N1C(=O)[C@@]2(c3cc(C#CC4(O)CCCCCC4)ccc31)[C@H](C(=O)Nc1nc3ccccc3s1)[C@H]1C(=O)O[C@H](c3ccccc3)[C@H](c3ccccc3)N1[C@@H]2c1ccc(O)cc1

>  <z-score>
-0.335

$$$$
>  <compound>
C=CCNC(=O)[C@@H]1[C@H]2C(=O)O[C@H](c3ccccc3)[C@H](c3ccccc3)N2[C@H](c2ccc(OCCO)cc2)[C@@]12C(=O)N(C(=O)OCCOC)c1ccc(C#Cc3ccc(OC)cc3)cc12

>  <z-score>
-0.492

$$$$
>  <compound>
CCCC[C@@H](O)C1=C(COc2ccccc2)C[C@H]2C(=O)N(Cc3ccccc3)C(=O)[C@H]2[C@H]1CO

>  <z-score>
-0.326

$$$$
>  <compound>
CCOC(=O)C[C@H]1[C@H](OC(=O)c2cc3ccccc3oc2=O)[C@@H](NC(=O)CC(C)C)c2cc(OCCCO)ccc2N1C(=O)c1ccc2ccccc2n1

>  <z-score>
-0.679

$$$$
>  <compound>
CC1CC/C=C\[C@H]2OC34C=CCN(c5ccc6ccccc6c5)C(=O)[C@H]3N(CCCO)C(=O)[C@@H]4C2C(=O)O1 (stereo partly drawn)

>  <z-score>
-0.0819

$$$$
>  <compound>
CCCC=C(CCC)[C@@H](NC(=O)c1cccs1)c1ccc(C(=O)OC)cc1

>  <z-score>
1.28

$$$$
>  <compound>
C=CCNC(=O)[C@@H]1[C@H]2C(=O)O[C@H](c3ccccc3)[C@H](c3ccccc3)N2[C@H](c2ccccc2OCCO)[C@@]12C(=O)Nc1ccc(C#CCCO)cc12

>  <z-score>
0.0309

$$$$
>  <compound>
Cc1ccccc1C(O)C1C=CC2C(=O)NC(=O)C2N1Nc1ccccn1 (stereo not drawn)

>  <z-score>
-1.01

$$$$
